- system_name: Potassium channel subfamily K member 2 (Homo sapiens, UniProt O95069, G275C)
- Sequence (O95069 whole entry G275C): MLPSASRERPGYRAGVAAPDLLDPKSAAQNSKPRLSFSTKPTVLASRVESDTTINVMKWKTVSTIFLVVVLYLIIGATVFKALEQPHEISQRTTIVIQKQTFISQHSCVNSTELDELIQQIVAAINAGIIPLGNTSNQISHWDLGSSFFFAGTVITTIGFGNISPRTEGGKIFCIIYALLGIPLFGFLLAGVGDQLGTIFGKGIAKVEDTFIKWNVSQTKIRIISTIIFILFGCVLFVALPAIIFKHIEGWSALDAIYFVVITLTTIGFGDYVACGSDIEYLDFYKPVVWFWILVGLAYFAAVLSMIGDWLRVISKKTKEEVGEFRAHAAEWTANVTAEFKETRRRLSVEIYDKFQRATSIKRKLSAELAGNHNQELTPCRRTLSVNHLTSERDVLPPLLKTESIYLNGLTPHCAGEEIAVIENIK
- measurement_notes: Activation of recombinant human TREK1 G275C mutant expressed in HEK293T cells assessed as increase in K+ current amplitude in presence of MTSET by whole cell voltage clamp electrophysiological analysis
- Assay type: cell-based
parameter_measured: EC50 (µM)
Please state the figure in µM; there is no need to write the unit.

// query State recorded EC50 with Potassium channel subfamily K member 2 (Homo sapiens, UniProt O95069, G275C), entry "Cc1ccc2nc(-c3ccc(NC(=O)[C@@H]4CC[C@H](C(=O)O)C4)cc3)sc2c1" , no comment.
// result 18.4

----------
- system_name: Potassium channel subfamily K member 2 (Homo sapiens, UniProt O95069, F149A)
- Sequence (O95069 whole entry F149A): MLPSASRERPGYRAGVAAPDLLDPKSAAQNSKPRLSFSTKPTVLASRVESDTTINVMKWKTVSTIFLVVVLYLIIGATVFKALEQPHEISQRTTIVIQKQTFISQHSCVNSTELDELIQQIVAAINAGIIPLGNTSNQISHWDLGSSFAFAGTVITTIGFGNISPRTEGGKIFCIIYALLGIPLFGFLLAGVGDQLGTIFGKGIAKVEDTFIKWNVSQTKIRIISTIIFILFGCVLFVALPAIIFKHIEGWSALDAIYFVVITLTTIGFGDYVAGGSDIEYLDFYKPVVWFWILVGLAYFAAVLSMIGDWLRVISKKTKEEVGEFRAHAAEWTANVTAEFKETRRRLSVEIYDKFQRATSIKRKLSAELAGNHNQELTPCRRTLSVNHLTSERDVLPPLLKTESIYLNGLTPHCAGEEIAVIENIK
- measurement_notes: Activation of recombinant human TREK1 F149A mutant expressed in HEK293T cells assessed as increase in K+ current amplitude by whole cell voltage clamp electrophysiological analysis
parameter_measured: pEC50
When answering, recall that pEC50 equals minus log10 of the concentration in mol/L, and write that number alone.

// query Look up and state reported pEC50 for "Cc1ccc2nc(-c3ccc(NC(=O)[C@@H]4CC[C@H](C(=O)O)C4)cc3)sc2c1"
// result 4.65

----------
- system_name: Potassium channel subfamily K member 4 (Homo sapiens, UniProt Q9NYG8)
- Sequence (Q9NYG8 whole entry): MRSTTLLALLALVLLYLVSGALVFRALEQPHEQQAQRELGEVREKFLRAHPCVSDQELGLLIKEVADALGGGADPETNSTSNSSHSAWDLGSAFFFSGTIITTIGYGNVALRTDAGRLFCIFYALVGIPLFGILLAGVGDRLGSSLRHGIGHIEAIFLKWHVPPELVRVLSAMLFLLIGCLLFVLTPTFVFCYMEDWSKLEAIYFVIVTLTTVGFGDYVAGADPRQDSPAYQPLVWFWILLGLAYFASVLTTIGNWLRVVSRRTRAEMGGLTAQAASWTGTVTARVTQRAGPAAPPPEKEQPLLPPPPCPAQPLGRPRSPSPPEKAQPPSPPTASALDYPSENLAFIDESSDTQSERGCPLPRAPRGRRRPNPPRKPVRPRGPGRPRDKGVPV
- measurement_notes: Activation of recombinant human TRAAK expressed in HEK293T cells assessed as increase in K+ current amplitude by whole cell voltage clamp electrophysiological analysis
parameter_measured: pEC50
pEC50 here is simply -log10 of the concentration when that concentration is written in mol/L.

// query Give Potassium channel subfamily K member 4 (Homo sapiens, UniProt Q9NYG8) pEC50 for the following compound: "Cc1ccc2nc(-c3ccc(NC(=O)[C@@H]4CC[C@H](C(=O)O)C4)cc3)sc2c1"
// result 4.82

----------
- system_name: Potassium channel subfamily K member 2 (Homo sapiens)
- measurement_notes: Activation of recombinant human TREK1 expressed in HEK293T cells assessed as increase in K+ current amplitude by whole cell voltage clamp electrophysiological analysis
parameter_measured: EC50 (µM)
Give the quantity in µM, number only.

// query Input "Cc1ccc2nc(-c3ccc(NC(=O)[C@@H]4CC[C@H](C(=O)O)C4)cc3)sc2c1" , output reported EC50.
// result 12.8
